Values compiled from paper PMC10812921.

- measured-on: POU2 (OCT2 POU domain) (human, UniProt P09086 175-386)
- Sequence: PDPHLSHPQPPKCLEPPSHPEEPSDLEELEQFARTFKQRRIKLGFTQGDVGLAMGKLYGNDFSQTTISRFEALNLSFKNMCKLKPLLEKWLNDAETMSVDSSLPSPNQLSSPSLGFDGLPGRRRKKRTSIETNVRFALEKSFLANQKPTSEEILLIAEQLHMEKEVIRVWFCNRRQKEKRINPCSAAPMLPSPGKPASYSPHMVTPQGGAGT
- experiment: EMSA-SELEX-seq; no BOB1; 20 mM Tris-HCl pH 7.6, 140 mM NaCl, 10% glycerol, 0.5 mM EDTA, 0.05% Triton X-100, 0.1 mg/mL BSA, 0.1 mg/mL poly(dI-dC), 5 mM DTT, room temperature, 20 min; high values mean tight binding
- condition-description: protein: recombinant; dsDNA, one strand shown
endpoint-label: binding signal

Look over these answered cases.
ATCAAAAG ... 0.0414 % of ANNNNAAN 8-mers
ATGGAAAA ... 0.162 % of ANNNNAAN 8-mers
AAAGCAAA ... 0.0754 % of ANNNNAAN 8-mers
AATGCAAC ... 0.0409 % of ANNNNAAN 8-mers
ATACCAAT ... 0.0518 % of ANNNNAAN 8-mers

Attention now shifts to the item below.
Item ATGTGAAG has what recorded binding signal?
0.0627 % of ANNNNAAN 8-mers

====

Recorded binding signal by entry
- measured-on: POU1 (OCT1 POU domain) (human, UniProt P14859 260-458)
- Sequence (P14859 260-458): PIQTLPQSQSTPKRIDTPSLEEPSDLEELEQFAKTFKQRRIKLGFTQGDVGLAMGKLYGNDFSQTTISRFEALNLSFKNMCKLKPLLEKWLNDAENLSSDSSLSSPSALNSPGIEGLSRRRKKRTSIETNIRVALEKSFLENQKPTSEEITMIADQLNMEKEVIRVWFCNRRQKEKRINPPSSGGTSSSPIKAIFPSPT
- experiment: EMSA-SELEX-seq; no BOB1; 20 mM Tris-HCl pH 7.6, 140 mM NaCl, 10% glycerol, 0.5 mM EDTA, 0.05% Triton X-100, 0.1 mg/mL BSA, 0.1 mg/mL poly(dI-dC), 5 mM DTT, room temperature, 20 min; high values mean tight binding
- condition-description: protein: recombinant; dsDNA, one strand shown

AATAAAAC ... 0.0751 % of ANNNNAAN 8-mers
AAGGTAAA ... 0.108 % of ANNNNAAN 8-mers
AGCTAAAT ... 0.0652 % of ANNNNAAN 8-mers
ATTACAAT ... 0.195 % of ANNNNAAN 8-mers

I would be grateful if you could share the reported binding signal for ACAAGAAT .
0.0454 % of ANNNNAAN 8-mers

Suppose we examine the sequence ACATTAAG ; what binding signal value has been reported?
0.095 % of ANNNNAAN 8-mers

// binding signal lookup, key: AGACGAAA
0.0309 % of ANNNNAAN 8-mers

What binding signal value was documented for this sequence, ATTGGAAT ?
0.141 % of ANNNNAAN 8-mers

Field request: binding signal | item: AAGACAAG
0.0259 % of ANNNNAAN 8-mers

====

binding signal overview
- measured-on: POU2 (OCT2 POU domain) (human, UniProt P09086 175-386)
- Sequence: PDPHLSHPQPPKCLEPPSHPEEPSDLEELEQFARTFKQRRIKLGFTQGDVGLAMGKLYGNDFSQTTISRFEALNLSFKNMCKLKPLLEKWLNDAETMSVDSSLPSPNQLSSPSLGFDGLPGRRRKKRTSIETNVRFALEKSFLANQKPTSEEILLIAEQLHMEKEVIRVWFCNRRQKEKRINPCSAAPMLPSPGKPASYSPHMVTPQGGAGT
- experiment: EMSA-SELEX-seq; no BOB1; 20 mM Tris-HCl pH 7.6, 140 mM NaCl, 10% glycerol, 0.5 mM EDTA, 0.05% Triton X-100, 0.1 mg/mL BSA, 0.1 mg/mL poly(dI-dC), 5 mM DTT, room temperature, 20 min; high values mean tight binding
- condition-description: protein: recombinant; dsDNA, one strand shown

Sample answers from the record:
AAGCGAAG ... 0.027 % of ANNNNAAN 8-mers
AATGGAAG ... 0.076 % of ANNNNAAN 8-mers
AATTAAAG ... 0.22 % of ANNNNAAN 8-mers
AGGTTAAG ... 0.0639 % of ANNNNAAN 8-mers

What does the data say about its binding signal? Entry: ATGATAAT
0.582 % of ANNNNAAN 8-mers

# input sequence: ACACTAAG ; wanted: its binding signal
0.0219 % of ANNNNAAN 8-mers

Which value of binding signal has been reported for ATCTAAAT in the records?
0.227 % of ANNNNAAN 8-mers

Any idea what its binding signal is? The sequence is ACAGAAAG
0.0236 % of ANNNNAAN 8-mers

Fill in: binding signal of ACATCAAG is ___
0.0351 % of ANNNNAAN 8-mers

Consider the sequence shown here: ATAGAAAT What is its recorded binding signal?
0.0961 % of ANNNNAAN 8-mers

Form field: reported binding signal of ACAACAAA
0.0265 % of ANNNNAAN 8-mers

Consider the sequence shown here: ACCTAAAT What is its recorded binding signal?
0.0489 % of ANNNNAAN 8-mers

GET /values?readout=binding signal&item= ATGGTAAC
0.0621 % of ANNNNAAN 8-mers

Look up binding signal: ACGAAAAC
0.0259 % of ANNNNAAN 8-mers

State the recorded binding signal for this entry: AGCCGAAG
0.0201 % of ANNNNAAN 8-mers

Entry under review: AGCGCAAC . Reported binding signal?
0.0104 % of ANNNNAAN 8-mers

# binding signal lookup, item ACATGAAC
0.0334 % of ANNNNAAN 8-mers

Entry under review: ATGGCAAA . Reported binding signal?
0.057 % of ANNNNAAN 8-mers

Which binding signal is reported for this sequence? AGTCCAAA
0.0299 % of ANNNNAAN 8-mers

Given the sequence ACGTGAAT , what is its reported binding signal?
0.107 % of ANNNNAAN 8-mers

Field request: binding signal | item: ATCGCAAG
0.0219 % of ANNNNAAN 8-mers

Need binding signal, item ATGGAAAG
0.112 % of ANNNNAAN 8-mers

====

- measured-on: POU1 (OCT1 POU domain) (human, UniProt P14859 260-458)
- experiment: EMSA-SELEX-seq; no BOB1; 20 mM Tris-HCl pH 7.6, 140 mM NaCl, 10% glycerol, 0.5 mM EDTA, 0.05% Triton X-100, 0.1 mg/mL BSA, 0.1 mg/mL poly(dI-dC), 5 mM DTT, room temperature, 20 min; high values mean tight binding
- condition-description: protein: recombinant; dsDNA, one strand shown
endpoint-label: binding signal

AGGCGAAC ... 0.0183 % of ANNNNAAN 8-mers

Which binding signal is reported with POU1 (OCT1 POU domain) (human, UniProt P14859 260-458) for this entry: AACCGAAT ?
0.0412 % of ANNNNAAN 8-mers

Query for POU1 (OCT1 POU domain) (human, UniProt P14859 260-458): what binding signal does the record show for AGTTAAAC ?
0.0461 % of ANNNNAAN 8-mers

====

- measured-on: POU1 (OCT1 POU domain) (human, UniProt P14859 260-458)
- experiment: EMSA-SELEX-seq; no BOB1; 20 mM Tris-HCl pH 7.6, 140 mM NaCl, 10% glycerol, 0.5 mM EDTA, 0.05% Triton X-100, 0.1 mg/mL BSA, 0.1 mg/mL poly(dI-dC), 5 mM DTT, room temperature, 20 min; high values mean tight binding
- condition-description: protein: recombinant; dsDNA, one strand shown
endpoint-label: binding signal

// binding signal lookup, key: AAGCTAAC
0.0137 % of ANNNNAAN 8-mers

Entry AGGGTAAG : reported binding signal = ?
0.0503 % of ANNNNAAN 8-mers

Recorded binding signal of AGCGCAAC , please.
0.0103 % of ANNNNAAN 8-mers
